molecular target: human kisspeptin receptor (Homo sapiens (Human), UniProt Q969F8); test: Human KISS1R binding assay (membrane competition binding); conditions: 90 min at room temperature; competition with 0.2 nM [125I]-metastin (45-54); Flp-In T-Rex 293 kisspeptin membranes; metal complexes nonradioactive Ga, In, Lu; read-out: hKiSSR Binding Ki (90 min)
Sequence (Q969F8 whole entry): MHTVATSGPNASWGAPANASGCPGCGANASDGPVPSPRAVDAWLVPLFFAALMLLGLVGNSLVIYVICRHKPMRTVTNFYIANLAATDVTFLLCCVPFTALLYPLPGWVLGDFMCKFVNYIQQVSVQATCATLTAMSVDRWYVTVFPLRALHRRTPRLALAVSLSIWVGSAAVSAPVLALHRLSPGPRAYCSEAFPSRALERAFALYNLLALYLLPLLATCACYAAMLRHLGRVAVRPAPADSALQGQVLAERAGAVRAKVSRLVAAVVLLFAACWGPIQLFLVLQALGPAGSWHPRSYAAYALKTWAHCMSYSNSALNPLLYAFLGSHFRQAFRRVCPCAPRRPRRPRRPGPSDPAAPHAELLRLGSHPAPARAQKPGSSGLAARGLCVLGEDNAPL
pKi: −log10 of the molar value. Square brackets hold non-standard residues; d marks the D form. Peptide text beside a SMILES is read from it. * marks the point of attachment. DOTA = O=C(O)CN1CCN(CC(=O)O)CCN(CC(=O)*)CCN(CC(=O)O)CC1; Gly(N-(3-F-4-Me-benzyl)) = Cc1ccc(CNCC(=O)*)cc1F; Phe(4-CN) = N#Cc1ccc(C[C@H](N)C(=O)O)cc1; 2Nal = N[C@@H](Cc1ccc2ccccc2c1)C(=O)O; Api = NC1(C(=O)O)CCNCC1; AEEA = NCCOCCOCC(=O)O; Ahx = NCCCCCC(=O)O; azaGly = NNC(=O)O
pKi overview

Observe how each entry below is paired with its result.
Cc1ccc(CNCC(=O)N2CCC(NC(=O)[C@H](CC(C)C)NC(=O)NNC(=O)[C@H](Cc3ccccc3)NC(=O)[C@@H](NC(=O)[C@H](CC(N)=O)NC(=O)[C@H](Cc3ccc4ccccc4c3)NC(=O)[C@@H](Cc3ccc(O)cc3)NC(=O)COCCOCCNC(=O)CN3CCN(CC(=O)O)CCN(CC(=O)O)CCN(CC(=O)O)CC3)[C@@H](C)O)(C(=O)N[C@@H](Cc3c[nH]c4ccccc34)C(N)=O)CC2)cc1F [Compound 58] ({DOTA-AEEA}-[dY][2Nal]NTF[azaGly]L[Api](Gly(N-(3-F-4-Me-benzyl)))W-NH2) :: > 8.00
Cc1ccc(CNCC(=O)N2CCC(NC(=O)[C@H](CC(C)C)NC(=O)NNC(=O)[C@H](Cc3ccccc3)NC(=O)CCCCCNC(=O)CN3CCN(CC(=O)O)CCN(CC(=O)O)CCN(CC(=O)O)CC3)(C(=O)N[C@@H](Cc3ccccc3)C(N)=O)CC2)cc1F [Compound 55] ({DOTA-Ahx}-F[azaGly]L[Api](Gly(N-(3-F-4-Me-benzyl)))F-NH2) :: > 8.00

Turning now to a further molecule:
### Prompt Report pKi for Cc1ccc(CNCC(=O)N2CCC(NC(=O)[C@H](CC(C)C)NC(=O)NNC(=O)[C@H](Cc3ccccc3)NC(=O)[C@@H](NC(=O)[C@H](CC(N)=O)NC(=O)[C@@H](Cc3c[nH]c4ccccc34)NC(=O)[C@@H](Cc3ccc(O)cc3)NC(=O)CCCCCNC(=O)CN3CCN(CC(=O)O)CCN(CC(=O)O)CCN(CC(=O)O)CC3)[C@@H](C)O)(C(=O)N[C@@H](Cc3ccc(C#N)cc3)C(N)=O)CC2)cc1F [Compound 104] ({DOTA-Ahx}-[dY][dW]NTF[azaGly]L[Api](Gly(N-(3-F-4-Me-benzyl)))[Phe(4-CN)]-NH2)
### Response > 8.00

###

biological target: human kisspeptin receptor (Homo sapiens (Human)); experiment: Human KISS1R binding assay (membrane competition binding); details: 90 min at room temperature; competition with 0.2 nM [125I]-metastin (45-54); Flp-In T-Rex 293 kisspeptin membranes; metal complexes nonradioactive Ga, In, Lu; read-out: hKiSSR Binding Ki (90 min)
pKi: −log10 of the molar value. Numbered stars: 1 amine (or outer) side, 2 acyl side, 3 side chain; on linkers, the order of the positions; unused ones are H or OH. Square brackets hold non-standard residues; d marks the D form. Peptide text beside a SMILES is read from it. * marks the point of attachment. DOTA = O=C(O)CN1CCN(CC(=O)O)CCN(CC(=O)*)CCN(CC(=O)O)CC1; Gly(N-(3-F-4-Me-benzyl)) = Cc1ccc(CNCC(=O)*)cc1F; Butanoyl(4-(4-I-phenyl)) = O=C(CCCc1ccc(I)cc1)*; Api(1-amidino) = N=C(N)N1CCC(N)(C(=O)O)CC1; Phe(3-F) = N[C@@H](Cc1cccc(F)c1)C(=O)O; d2Nal = N[C@H](Cc1ccc2ccccc2c1)C(=O)O; X1 = O=C(CN1CCC(N[*:1])CC1)[*:2]; Cha = N[C@@H](CC1CCCCC1)C(=O)O; Lauroyl = CCCCCCCCCCCC(=O)*; Api = NC1(C(=O)O)CCNCC1; Ahx = NCCCCCC(=O)O; azaGly = NNC(=O)O; βAla = NCCC(=O)O; Sar = CNCC(=O)O
Reported endpoint: pKi

CC(C)C[C@H](NC(=O)CNC(=O)[C@H](Cc1ccccc1)NC(=O)CCCCCNC(=O)CN1CCN(CC(=O)O)CCN(CC(=O)O)CCN(CC(=O)O)CC1)C(=O)NC1(C(=O)N[C@@H](Cc2c[nH]c3ccccc23)C(N)=O)CCN(C(=N)N)CC1 [Compound 3] ({DOTA-Ahx}-FGL[Api(1-amidino)]W-NH2) :: < 7.00
Cc1ccc(CNCC(=O)N2CCC(NC(=O)[C@H](CC(C)C)NC(=O)NNC(=O)[C@H](Cc3ccccc3)NC(=O)[C@@H](NC(=O)[C@H](CC(N)=O)NC(=O)[C@@H](Cc3c[nH]c4ccccc34)NC(=O)CCCCCNC(=O)CN3CCN(CC(=O)O)CCN(CC(=O)O)CCN(CC(=O)O)CC3)[C@@H](C)O)(C(=O)N[C@@H](Cc3c[nH]c4ccccc34)C(N)=O)CC2)cc1F [Compound 30] ({DOTA-Ahx}-[dW]NTF[azaGly]L[Api](Gly(N-(3-F-4-Me-benzyl)))W-NH2) :: > 8.00
Cc1ccc(CNCC(=O)N2CCC(NC(=O)[C@H](CC(C)C)NC(=O)NNC(=O)[C@H](Cc3ccccc3)NC(=O)CN3CCC(NC(=O)CN4CCN(CC(=O)O)CCN(CC(=O)O)CCN(CC(=O)O)CC4)CC3)(C(=O)N[C@@H](Cc3ccccc3)C(N)=O)CC2)cc1F [Compound 245] ({DOTA}-[X1]F[azaGly]L[Api](Gly(N-(3-F-4-Me-benzyl)))F-NH2) :: > 8.00
CSCC[C@H](NC(=O)c1ccc(CNC(=O)CN2CCN(CC(=O)O)CCN(CC(=O)O)CCN(CC(=O)O)CC2)cc1)C(=O)N[C@H](C(=O)NCc1ccc(C(=O)N[C@@H](CCSC)C(=O)N[C@H](C(=O)N[C@@H](CCCCNC(=O)CCCCC(=O)N[C@@H](CC(N)=O)C(=O)N[C@H](C(=O)N[C@@H](Cc2ccccc2)C(=O)NNC(=O)N[C@@H](CC(C)C)C(=O)NC2(C(=O)N[C@@H](Cc3c[nH]c4ccccc34)C(N)=O)CCN(C(=O)CNCc3ccc(C)c(F)c3)CC2)[C@@H](C)O)C(=O)O)C(C)C)cc1)C(C)C [Compound 167] :: > 8.00
Cc1ccc(CNCC(=O)N2CCC(NC(=O)[C@H](CC(C)C)NC(=O)NNC(=O)[C@H](Cc3ccccc3)NC(=O)CCCCCNC(=O)CN3CCN(CC(=O)O)CCN(CC(=O)O)CCN(CC(=O)O)CC3)(C(=O)N[C@@H](CC3CCCCC3)C(N)=O)CC2)cc1F [Compound 141] ({DOTA-Ahx}-F[azaGly]L[Api](Gly(N-(3-F-4-Me-benzyl)))[Cha]-NH2) :: 7.00 to 8.00

### Prompt Report pKi for CCCCCCCCCCCC(=O)N[C@H](Cc1ccc(O)cc1)C(=O)N[C@H](Cc1ccc2ccccc2c1)C(=O)N[C@@H](CC(N)=O)C(=O)N[C@H](C(=O)N[C@@H](Cc1ccccc1)C(=O)NNC(=O)N[C@@H](CC(C)C)C(=O)NC1(C(=O)N[C@@H](Cc2ccc(O)cc2)C(N)=O)CCN(C(=O)CNC)CC1)[C@@H](C)O [Compound 401] (Lauroyl-[dY][d2Nal]NTF[azaGly]L[Api](Sar)Y-NH2)
### Response > 8.00

### Prompt Report pKi for CNCC(=O)N1CCC(NC(=O)[C@H](CC(C)C)NC(=O)NNC(=O)[C@H](Cc2ccccc2)NC(=O)[C@@H](NC(=O)[C@H](CC(N)=O)NC(=O)[C@@H](Cc2ccc3ccccc3c2)NC(=O)[C@@H](Cc2ccc(O)cc2)NC(=O)CCCc2ccc(I)cc2)[C@@H](C)O)(C(=O)N[C@@H](Cc2ccccc2)C(N)=O)CC1 [Compound 398] ({Butanoyl(4-(4-I-phenyl))}-[dY][d2Nal]NTF[azaGly]L[Api](Sar)F-NH2)
### Response > 8.00

### Prompt Report pKi for Cc1ccc(CNCC(=O)N2CCC(NC(=O)[C@H](CC(C)C)NC(=O)NNC(=O)[C@H](Cc3ccccc3)NC(=O)[C@@H](CC(N)=O)NC(=O)[C@@H](CC(N)=O)NC(=O)[C@@H](CC(N)=O)NC(=O)[C@@H](CC(N)=O)NC(=O)[C@@H](CC(N)=O)NC(=O)CCNC(=O)CN3CCN(CC(=O)O)CCN(CC(=O)O)CCN(CC(=O)O)CC3)(C(=O)N[C@@H](Cc3c[nH]c4ccccc34)C(N)=O)CC2)cc1F [Compound 14] ({DOTA-βAla}-[dN][dN][dN][dN][dN]F[azaGly]L[Api](Gly(N-(3-F-4-Me-benzyl)))W-NH2)
### Response 7.00 to 8.00

### Prompt Report pKi for Cc1ccc(CNCC(=O)N2CCC(NC(=O)[C@H](CC(C)C)NC(=O)NNC(=O)[C@H](Cc3cccc(F)c3)NC(=O)[C@@H](NC(=O)[C@H](CC(N)=O)NC(=O)[C@H](CCC(=O)O)NC(=O)[C@@H](Cc3ccc(O)cc3)NC(=O)CCCCCNC(=O)CN3CCN(CC(=O)O)CCN(CC(=O)O)CCN(CC(=O)O)CC3)[C@@H](C)O)(C(=O)N[C@@H](Cc3c[nH]c4ccccc34)C(N)=O)CC2)cc1F [Compound 36] ({DOTA-Ahx}-[dY]ENT[Phe(3-F)][azaGly]L[Api](Gly(N-(3-F-4-Me-benzyl)))W-NH2)
### Response > 8.00

### Prompt Report pKi for CC(C)C[C@H](NC(=O)NNC(=O)[C@H](Cc1ccccc1)NC(=O)[C@@H](NC(=O)[C@H](CC(N)=O)NC(=O)[C@@H](Cc1ccc2ccccc2c1)NC(=O)[C@@H](Cc1ccc(O)cc1)NC(=O)CCCCCNC(=O)CN1CCN(CC(=O)O)CCN(CC(=O)O)CCN(CC(=O)O)CC1)[C@@H](C)O)C(=O)NC1(C(=O)N[C@H](Cc2c[nH]c3ccccc23)C(N)=O)CCNCC1 [Compound 339] ({DOTA-Ahx}-[dY][d2Nal]NTF[azaGly]L[Api][dW]-NH2)
### Response > 8.00

Data provenance is patent US20250312499A1.
